# tested-system: Kras and SOS1 (biotin-tagged human Kras loaded with GDP, His-tagged human SOS1) (Homo sapiens, UniProt P01116, G12D)
# Construct: made in house; host or cells: E. coli (stated for Kras only)
# Sequence (P01116 1-188 isoform P01116-2 G12D): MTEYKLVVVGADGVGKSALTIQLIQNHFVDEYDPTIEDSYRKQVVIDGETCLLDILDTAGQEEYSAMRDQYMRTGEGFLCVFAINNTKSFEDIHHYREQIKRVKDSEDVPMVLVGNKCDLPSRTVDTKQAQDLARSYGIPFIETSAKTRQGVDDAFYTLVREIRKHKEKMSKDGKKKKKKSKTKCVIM
# test-method-notes: Protein-protein interaction inhibition between Kras and SOS1 (KrasGl2D-SOS PPI) using AlphaScreen
# Assay type: binding
# test-parameters: AlphaScreen; biotin-tagged human Kras loaded with GDP, His-tagged human SOS1; read-out: KRAS G12D-SOS PPI IC50
Positions of bridges follow the written chain, without caps; N, C: chain ends. Non-standard residues stand in square brackets, D forms with d. Residues, ends and D or L forms follow the SMILES beside them. *: point of attachment. hPhe(3-Cl-4-CF3) = N[C@@H](CCc1ccc(C(F)(F)F)c(Cl)c1)C(=O)O; NMeGly(cPent) = CN[C@H](C(=O)O)C1CCCC1; NMeCha = CN[C@@H](CC1CCCCC1)C(=O)O; NMehLeu = CN[C@@H](CCC(C)C)C(=O)O; NMeD = CN[C@@H](CC(=O)O)C(=O)O; Azetidin(1-yl) = C1CN(*)C1; NMeA = CN[C@@H](C)C(=O)O; Ac5c = NC1(C(=O)O)CCCC1; Aze = O=C(O)[C@@H]1CCN1; Sar = CNCC(=O)O
measured-property: IC50 (nM)
Numbers only; they are read as nM.

Qu. Output IC50 of CC[C@H](C)[C@@H]1NC(=O)[C@H](CCC(C)C)N(C)C(=O)C[C@@H](C(=O)N2CCC2)N(C)C(=O)[C@H](C2CCCC2)N(C)C(=O)C2(CCCC2)NC(=O)[C@@H]2CCCN2C(=O)[C@H](CCc2ccc(C(F)(F)F)c(Cl)c2)NC(=O)CN(C)C(=O)[C@H](CC2CCCCC2)N(C)C(=O)[C@@H]2CCN2C(=O)[C@H](C)N(C)C1=O [Compound 806] ([NMehLeu]I[NMeA][Aze][NMeCha][Sar][hPhe(3-Cl-4-CF3)]P[Ac5c][NMeGly(cPent)][NMeD]-{Azetidin(1-yl)}; lactam N-11)
Ans. 1.1
